Data origin: paper PMC4336329

Molecular target: human ether-à-go-go-related gene (hERG) potassium channel (human, UniProt Q12809)
Sequence (Q12809 whole entry, looked up): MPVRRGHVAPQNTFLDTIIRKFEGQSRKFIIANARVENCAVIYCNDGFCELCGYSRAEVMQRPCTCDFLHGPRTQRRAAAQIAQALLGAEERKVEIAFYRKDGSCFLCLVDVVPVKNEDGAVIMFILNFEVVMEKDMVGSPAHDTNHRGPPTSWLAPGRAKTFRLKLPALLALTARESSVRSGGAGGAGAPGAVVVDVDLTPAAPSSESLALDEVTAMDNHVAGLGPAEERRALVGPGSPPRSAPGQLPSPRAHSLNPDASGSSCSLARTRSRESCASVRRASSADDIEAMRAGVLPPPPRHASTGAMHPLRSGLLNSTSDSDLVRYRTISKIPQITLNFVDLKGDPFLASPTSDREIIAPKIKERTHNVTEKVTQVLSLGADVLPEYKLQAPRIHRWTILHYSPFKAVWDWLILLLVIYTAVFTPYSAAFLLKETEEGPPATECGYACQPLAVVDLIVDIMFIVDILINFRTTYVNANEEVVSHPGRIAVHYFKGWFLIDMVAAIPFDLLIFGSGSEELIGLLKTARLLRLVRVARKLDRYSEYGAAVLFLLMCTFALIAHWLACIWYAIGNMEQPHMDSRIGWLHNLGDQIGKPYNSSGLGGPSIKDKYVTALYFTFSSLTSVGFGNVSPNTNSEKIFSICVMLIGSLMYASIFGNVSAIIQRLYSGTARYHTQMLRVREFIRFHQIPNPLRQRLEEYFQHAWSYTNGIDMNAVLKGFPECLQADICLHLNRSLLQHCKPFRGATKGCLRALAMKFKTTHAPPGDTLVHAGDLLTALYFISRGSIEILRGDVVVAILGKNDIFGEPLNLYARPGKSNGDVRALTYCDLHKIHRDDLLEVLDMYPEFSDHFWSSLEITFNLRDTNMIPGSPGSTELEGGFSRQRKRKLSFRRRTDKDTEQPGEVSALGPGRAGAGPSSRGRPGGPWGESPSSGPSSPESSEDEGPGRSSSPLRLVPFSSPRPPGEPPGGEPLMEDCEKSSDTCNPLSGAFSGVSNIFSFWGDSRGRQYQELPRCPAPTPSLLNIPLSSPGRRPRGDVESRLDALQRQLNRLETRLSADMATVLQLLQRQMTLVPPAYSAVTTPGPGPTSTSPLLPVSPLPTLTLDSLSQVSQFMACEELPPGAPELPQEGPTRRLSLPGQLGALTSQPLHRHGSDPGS
Assay: primary screen, population patch clamp on CHO cells stably expressing hERG; higher = less effect of the substance
In all, about 310,000 compounds went through this assay and about 14,000 (4.5%) showed an effect of 50% or more. Effects have a minus sign here. The entries come from a sample that favours strong results as a whole.
Here, each record is paired with measured hERG current change (%, negative = inhibition) at 10uM data.
Report the value in % with no unit label.

Worked cases, hERG current change (%, negative = inhibition) at 10uM given:
MOLECULE: COc1cc(CO)ccc1Oc1nc2ccccc2n2cnnc12
RESULT NUMBER: 10.7
//
MOLECULE: Cc1cc(C)cc(NC(=S)N2CCN(S(C)(=O)=O)CC2)c1
RESULT NUMBER: 4.55
//
MOLECULE: Cc1csc2ncnc(N3CCN(C(=S)Nc4ccc(C(F)(F)F)cc4)CC3)c12
RESULT NUMBER: -16.7
//
MOLECULE: Cc1nc2sc(C(c3ccc(F)cc3)N3CCOCC3)c(O)n2n1 (stereo not shown)
RESULT NUMBER: 9.62
//
MOLECULE: O=C(Nc1ccc(Cl)cc1)N1CCCN(c2ccc(C(F)(F)F)cc2[N+](=O)[O-])CC1
RESULT NUMBER: 4.29

hERG current change (%, negative = inhibition) at 10uM in this record for Cc1cc(/C(=N/O)C(C)(C)NO)ccc1Cl : 5.73

Per the records, this molecule ( Cc1csc2c(N3CCN(C(=O)Nc4ccc(OC(F)(F)F)cc4)CC3)ncnc12 ) has hERG current change (%, negative = inhibition) at 10uM equal to -32.9

Record CCOc1ccc(S(=O)(=O)Nc2cccc(C(=O)NCCCn3ccnc3)c2)cc1 . Reported hERG current change (%, negative = inhibition) at 10uM: 10.5

The reported hERG current change (%, negative = inhibition) at 10uM of the molecule COc1cnn(-c2cc(Oc3ccc(C)cc3)ncn2)c(=O)c1Cl was 2.74

Sure, the documented hERG current change (%, negative = inhibition) at 10uM for Cc1csc2ncnc(N3CCN(C(=O)Nc4ccc(OC(F)(F)F)cc4)CC3)c12 is -68

* * *

Target: human ether-à-go-go-related gene (hERG) potassium channel (human, UniProt Q12809)
Assay: primary screen, population patch clamp on CHO cells stably expressing hERG; higher = less effect of the substance
About 14,000 (4.5%) of roughly 310,000 compounds showed an effect of 50% or more. The effect is printed as a negative number. The sample as a whole holds a higher share of strong results than the screen did.
Form field: hERG current change (%, negative = inhibition) at 10uM (one value per entry).
// return numeric value only (unit: %, not printed)

Examples with answers:
COMPOUND: Cn1c(CCN2CCCCC2)nc2cc(NC(=O)COc3ccc([N+](=O)[O-])cc3)ccc21
RESULT NUMBER: -63.1

COMPOUND: CCOC(=O)c1[nH]c2ccc(OC)cc2c1NC(=O)c1nonc1C
RESULT NUMBER: 6.27

COMPOUND: CN1CCN(CCc2nc3cc(NC(=O)COc4ccc([N+](=O)[O-])cc4)ccc3n2C)CC1
RESULT NUMBER: 16.1

COMPOUND: CCN1CCN(Cc2nc3cc(NC(=O)COc4ccc([N+](=O)[O-])cc4)ccc3n2C)CC1
RESULT NUMBER: -18.7

COMPOUND: CCN1CCN(CCc2nc3cc([N+](=O)[O-])ccc3n2C)CC1
RESULT NUMBER: -16.9

COMPOUND: CC(C)N(C)C(=O)c1ccc(OC2CCN(CCc3ccccc3)CC2)cc1
RESULT NUMBER: -40.8

COMPOUND: Cc1nn(S(=O)(=O)c2cccc([N+](=O)[O-])c2)c(C)c1Br
RESULT NUMBER: 10.7

COMPOUND: Cn1c(CCN2CCOCC2)nc2cc(NC(=O)COc3ccc([N+](=O)[O-])cc3)ccc21
RESULT NUMBER: -21.1

Kindly note the recorded hERG current change (%, negative = inhibition) at 10uM for Cc1ccc(S(=O)(=O)NCCC(c2ccc(F)cc2)c2ccco2)cc1 (stereo not shown) , which is 10.8

Cc1cc(C)c(C#N)c(SCc2ccc([N+](=O)[O-])cc2)n1 yielded hERG current change (%, negative = inhibition) at 10uM of 15.9

Notebook: CC(c1nccs1)N(C)C(=O)c1ccc(OC2CCN(CCc3ccccc3)CC2)cc1 (stereo not shown) , hERG current change (%, negative = inhibition) at 10uM read as -51.4

* * *

Target: human ether-à-go-go-related gene (hERG) potassium channel (human, UniProt Q12809)
Test: primary screen, population patch clamp on CHO cells stably expressing hERG; higher = less effect of the substance
Protocol: Briefly, Chinese hamster ovary (CHO) cells stably expressing the hERG channel were dislodged from tissue culture flasks and dispensed into PPC plates. […] During the recording, background leak currents were estimated by a 100 ms step to -80 mV from an initial holding potential of -70 mV and subtracted from the subsequent current measurement. The campaign was conducted in two phases using slight differences in recording protocol. […]
Among all 310,000 compounds or so, about 14,000 (4.5%) showed an effect of 50% or more. The effect is printed as a negative number. Many of the other results were omitted from the sample, so strong results are more common in it than they were.
Quick rule for you: hERG current change (%, negative = inhibition) at 10uM at -60% or higher means met, lower means not met.

COMPOUND STRUCTURE STRING: CN(Cc1ccco1)S(=O)(=O)c1ccc(CN2C(=O)c3cccnc3C2=O)s1
EXPERIMENTAL SYSTEM: human ether-à-go-go-related gene (hERG) potassium channel (human, UniProt Q12809)
ANSWER LABEL: not met

Decide: hERG current change (%, negative = inhibition) at 10uM of COc1ccc(/C(N)=N/O)cc1O >= -60%?
met

Is it the case that COc1ccc(CN(C)C(=O)c2cccc(C(=O)N(C)Cc3ccc(OC)cc3)c2)cc1 has hERG current change (%, negative = inhibition) at 10uM reaching or exceeding -60%?
not met

Dear colleague, could you confirm whether COc1ccc(CN2C(=O)c3cccnc3C2=O)cc1S(=O)(=O)N(C)Cc1ccco1 has hERG current change (%, negative = inhibition) at 10uM at or above -60%?
met

* * *

Biological target: human ether-à-go-go-related gene (hERG) potassium channel (human)
Assay: primary screen, population patch clamp on CHO cells stably expressing hERG; higher = less effect of the substance
About 14,000 (4.5%) of roughly 310,000 compounds showed an effect of 50% or more. The effect is printed as a negative number. Shown is part of a subset that was picked to be rich in strong results.
Listed below: hERG current change (%, negative = inhibition) at 10uM values for each entry.
Respond with the bare value in %.

COMPOUND: CCOC(=O)CC(NC(C)=O)c1ccc([N+](=O)[O-])cc1 (centres unmarked)
EXPERIMENTAL SYSTEM: human ether-à-go-go-related gene (hERG) potassium channel (human)
RESULT NUMBER: -1.79
--
COMPOUND: Cc1cc(S(=O)(=O)NCc2ccco2)c(C)cc1Cl
EXPERIMENTAL SYSTEM: human ether-à-go-go-related gene (hERG) potassium channel (human)
RESULT NUMBER: 14.1
--
COMPOUND: CC(=O)Nc1ccc(S(=O)(=O)NCCC(=O)OCc2ccccc2F)cc1
EXPERIMENTAL SYSTEM: human ether-à-go-go-related gene (hERG) potassium channel (human)
RESULT NUMBER: -8.68
--
COMPOUND: Cn1ncc(C#N)c1/N=C/N(Cc1ccccc1)Cc1ccccc1
EXPERIMENTAL SYSTEM: human ether-à-go-go-related gene (hERG) potassium channel (human)
RESULT NUMBER: -9.12

Entry CC(=O)NC(CC(=O)O)c1ccc([N+](=O)[O-])cc1 (centres unmarked) ; hERG current change (%, negative = inhibition) at 10uM = 10.6

* * *

Each record here notes measured hERG current change (%, negative = inhibition) at 10uM.
Biological target: human ether-à-go-go-related gene (hERG) potassium channel (human)
Assay: primary screen, population patch clamp on CHO cells stably expressing hERG; higher = less effect of the substance
The campaign covered roughly 310,000 compounds. About 14,000 (4.5%) showed an effect of 50% or more. Effects have a minus sign here. For the sample, strong results were picked, then their nearest neighbours and some compounds at random.
Give just the numeric value; % need not be written.

MOLECULE: CC(C)Oc1ccccc1C1Nc2ccccc2C(=O)N1c1ccc2c(c1)OCCO2 (stereo not drawn)
EXPERIMENTAL SYSTEM: human ether-à-go-go-related gene (hERG) potassium channel (human)
RESULT NUMBER: 3.43
//
MOLECULE: COc1ccc(-c2[nH]ncc2CN2CCCC(C(=O)c3cccc(OC)c3)C2)cc1 (stereo not drawn)
EXPERIMENTAL SYSTEM: human ether-à-go-go-related gene (hERG) potassium channel (human)
RESULT NUMBER: -67.3
//
MOLECULE: COc1cccc(-c2nn(-c3ccc(C)cc3)cc2C(=O)N2CCN(C3CCS(=O)(=O)C3)CC2)c1 (stereo not drawn)
EXPERIMENTAL SYSTEM: human ether-à-go-go-related gene (hERG) potassium channel (human)
RESULT NUMBER: -57
//
MOLECULE: Cc1cccc(-c2nn(-c3ccccc3)cc2C(=O)N2CCN(C3CCS(=O)(=O)C3)CC2)c1 (stereo not drawn)
EXPERIMENTAL SYSTEM: human ether-à-go-go-related gene (hERG) potassium channel (human)
RESULT NUMBER: -36.6
//
MOLECULE: COc1cccc(C(=O)C2CCCN(Cc3cn[nH]c3C3CCCCC3)C2)c1 (stereo not drawn)
EXPERIMENTAL SYSTEM: human ether-à-go-go-related gene (hERG) potassium channel (human);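 note: peak tail current of the secondary pulse compared with the same well before compound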
RESULT NUMBER: -32.1
//
MOLECULE: CCc1ccc(-c2nn(-c3ccccc3C)cc2C(=O)N2CCN(C3CCS(=O)(=O)C3)CC2)cc1 (stereo not drawn)
EXPERIMENTAL SYSTEM: human ether-à-go-go-related gene (hERG) potassium channel (human);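 note: peak tail current of the secondary pulse compared with the same well before compound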
RESULT NUMBER: -1.98
//
MOLECULE: COc1ccc(-c2nn(-c3ccccc3)cc2C(=O)NCC2CCCO2)cc1 (stereo not drawn)
EXPERIMENTAL SYSTEM: human ether-à-go-go-related gene (hERG) potassium channel (human);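 note: peak tail current of the secondary pulse compared with the same well before compound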
RESULT NUMBER: -0.557
//
MOLECULE: COc1cccc(-c2nn(-c3ccc(C)cc3)cc2C(=O)NCC2CCCO2)c1 (stereo not drawn)
EXPERIMENTAL SYSTEM: human ether-à-go-go-related gene (hERG) potassium channel (human);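 note: peak tail current of the secondary pulse compared with the same well before compound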
RESULT NUMBER: -62.2

// next entry
# molecule COc1ccc(-c2[nH]ncc2CN2CCSCC2)c(OC)c1 ; its hERG current change (%, negative = inhibition) at 10uM = 14.7
